pKi: −log10 of the molar value.
Hi, quick share: literature pKi data for 5-hydroxytryptamine receptor 2A (Homo sapiens), several sources combined.
Rule: pKi of 6 or more gives condition met; anything lower gives condition not met.

O=C1COc2ccc(OCCCCN3CCN(c4cccc(Cl)c4Cl)CC3)cc2N1
condition met
Cl.Nc1nc(NCCc2c[nH]c3ccccc23)nc(NCCn2c(C(F)(F)F)nc3ccccc32)n1
condition not met
Cl.Nc1nc(NCCc2ccccc2)nc(NCCc2c[nH]c3ccc(Cl)cc23)n1
condition met
Cc1cccc(Cc2nc(N)nc(N3CCN(C)CC3)n2)c1
condition met

Query: Given the entry Clc1nnc2ccc(Oc3ccccc3-c3ccccc3)nn12 , answer whether its pKi meets or surpasses 6.
Result: condition not met
